- Assayed Target: Mot3 (UniProt P54785)
- Sequence: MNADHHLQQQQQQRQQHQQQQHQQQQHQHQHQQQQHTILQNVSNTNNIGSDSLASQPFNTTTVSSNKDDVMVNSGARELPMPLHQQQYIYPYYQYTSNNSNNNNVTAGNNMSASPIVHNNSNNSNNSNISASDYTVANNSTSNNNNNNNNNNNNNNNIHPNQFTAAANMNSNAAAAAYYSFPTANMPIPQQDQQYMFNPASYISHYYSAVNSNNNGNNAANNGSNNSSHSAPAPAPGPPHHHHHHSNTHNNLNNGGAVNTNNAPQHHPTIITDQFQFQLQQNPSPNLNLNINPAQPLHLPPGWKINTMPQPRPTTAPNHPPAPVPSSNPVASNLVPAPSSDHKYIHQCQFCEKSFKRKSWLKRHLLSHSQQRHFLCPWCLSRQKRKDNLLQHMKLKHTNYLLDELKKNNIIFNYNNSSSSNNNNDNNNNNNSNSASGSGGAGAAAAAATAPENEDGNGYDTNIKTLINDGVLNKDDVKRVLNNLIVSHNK
- Measurement Notes: PBM E-score (8-mer binding enrichment) (E-score (-0.5 to 0.5)); higher = stronger / more preferred TF binding
- Conditions: protein concentration: 200 nM; construct: GST-full length
The full ranking holds about 33,000 sequences; the median of “E-score (-0.5 to 0.5)” is about -0.035, and the highest 2% start at about 0.34. Only a selection was taken, and the highest values are over-represented in it overall.
Catalogue of PBM E-score readings, one per entry.
Just the number.

Consider the worked cases shown below.
{"columns": ["Sequence Code", "Assayed Target", "PBM E-score"],
 "data": [
  ["ATACACGG", "Mot3 (UniProt P54785)", 0.375],
  ["GGGCACGA", "Mot3 (UniProt P54785)", 0.163],
  ["ACAAAAGA", "Mot3 (UniProt P54785)", 0.166],
  ["TAGAGGAA", "Mot3 (UniProt P54785)", -0.0809],
  ["GGCCTCAA", "Mot3 (UniProt P54785)", 0.00845]
]}

-- ask What does the data say about its PBM E-score? Entry: AGAAGAAG
-- reply -0.0319

-- ask What does the data say about its PBM E-score? Entry: AACCTGGG
-- reply 0.0477

-- ask What does the data say about its PBM E-score? Entry: ATTACAGG
-- reply 0.359

-- ask What does the data say about its PBM E-score? Entry: CCGAGACG
-- reply -0.0781

-- ask What does the data say about its PBM E-score? Entry: AGGGTAAT
-- reply -0.0805

-- ask What does the data say about its PBM E-score? Entry: GCTATGCA
-- reply -0.154

* * *

- Assayed Target: Mot3 (UniProt P54785)
- Sequence: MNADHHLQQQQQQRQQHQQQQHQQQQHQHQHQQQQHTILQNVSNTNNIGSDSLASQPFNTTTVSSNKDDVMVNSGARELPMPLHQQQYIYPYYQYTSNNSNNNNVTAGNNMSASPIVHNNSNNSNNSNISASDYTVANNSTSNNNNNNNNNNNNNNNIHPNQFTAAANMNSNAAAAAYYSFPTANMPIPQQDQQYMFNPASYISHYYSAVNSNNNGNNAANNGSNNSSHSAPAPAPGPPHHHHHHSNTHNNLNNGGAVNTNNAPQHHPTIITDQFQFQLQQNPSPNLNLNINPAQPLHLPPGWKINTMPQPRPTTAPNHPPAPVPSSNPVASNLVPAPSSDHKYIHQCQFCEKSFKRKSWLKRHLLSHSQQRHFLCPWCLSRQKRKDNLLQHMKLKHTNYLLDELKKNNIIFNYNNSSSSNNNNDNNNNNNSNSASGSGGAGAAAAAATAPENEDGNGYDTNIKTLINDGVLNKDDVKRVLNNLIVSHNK
- Measurement Notes: PBM E-score (8-mer binding enrichment) (E-score (-0.5 to 0.5)); higher = stronger / more preferred TF binding
- Conditions: protein concentration: 200 nM; construct: GST-full length
Over roughly 33,000 sequences, “E-score (-0.5 to 0.5)” has its median near -0.035; the highest 2% begin near 0.34. This is one part of a sample in which the highest values are shown more often than they occur.
Metric Name: PBM E-score
Just the number.

{"columns": ["Sequence Code", "PBM E-score"],
 "data": [
  ["GCAGCCTA", -0.0663],
  ["ATGGCGGA", -0.302],
  ["ACGTAAAC", 0.251],
  ["GTGTAAAA", 0.377]
]}

-- ask What does the data say about its PBM E-score? Entry: TCCTCCAA
-- reply -0.0985

-- ask What does the data say about its PBM E-score? Entry: CACACTCC
-- reply -0.178

-- ask What does the data say about its PBM E-score? Entry: ATTGGAGA
-- reply -0.179

-- ask What does the data say about its PBM E-score? Entry: AGGAACAT
-- reply 0.422

-- ask What does the data say about its PBM E-score? Entry: CAGTTAGC
-- reply -0.274

-- ask What does the data say about its PBM E-score? Entry: CACTCTAG
-- reply -0.145

-- ask What does the data say about its PBM E-score? Entry: CCCATGTC
-- reply 0.0657

-- ask What does the data say about its PBM E-score? Entry: ACAACGTG
-- reply 0.114

-- ask What does the data say about its PBM E-score? Entry: ACGAACAG
-- reply -0.0228

-- ask What does the data say about its PBM E-score? Entry: CCGTGTTC
-- reply 0.27

-- ask What does the data say about its PBM E-score? Entry: AGGTAAAC
-- reply 0.302

-- ask What does the data say about its PBM E-score? Entry: ACACAACA
-- reply 0.307

-- ask What does the data say about its PBM E-score? Entry: CCGCCTAC
-- reply -0.166

-- ask What does the data say about its PBM E-score? Entry: CGTGTTGA
-- reply 0.395

-- ask What does the data say about its PBM E-score? Entry: ACCATGTG
-- reply 0.0765

-- ask What does the data say about its PBM E-score? Entry: TTAGCTAA
-- reply -0.0988

-- ask What does the data say about its PBM E-score? Entry: ACGAACAT
-- reply 0.109

-- ask What does the data say about its PBM E-score? Entry: CAAGGGGC
-- reply -0.148

-- ask What does the data say about its PBM E-score? Entry: CGAATTCG
-- reply -0.137

-- ask What does the data say about its PBM E-score? Entry: CCGTGTTA
-- reply 0.376

-- ask What does the data say about its PBM E-score? Entry: ACTAGCAG
-- reply 0.109

* * *

- Assayed Target: Mot3 (UniProt P54785)
- Sequence: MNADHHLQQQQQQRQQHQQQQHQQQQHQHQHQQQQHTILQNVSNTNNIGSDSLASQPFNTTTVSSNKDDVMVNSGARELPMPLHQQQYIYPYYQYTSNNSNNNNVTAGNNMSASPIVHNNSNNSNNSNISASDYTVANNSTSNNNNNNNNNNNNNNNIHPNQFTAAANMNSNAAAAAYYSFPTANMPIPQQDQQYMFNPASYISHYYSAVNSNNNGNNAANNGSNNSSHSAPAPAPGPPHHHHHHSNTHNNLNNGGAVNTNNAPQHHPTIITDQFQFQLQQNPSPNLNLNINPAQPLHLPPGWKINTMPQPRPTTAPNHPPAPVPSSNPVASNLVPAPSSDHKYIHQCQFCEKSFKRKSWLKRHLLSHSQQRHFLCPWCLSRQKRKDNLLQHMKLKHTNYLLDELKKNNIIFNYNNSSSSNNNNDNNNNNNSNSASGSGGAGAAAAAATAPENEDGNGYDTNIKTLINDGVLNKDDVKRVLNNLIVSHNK
- Measurement Notes: PBM E-score (8-mer binding enrichment) (E-score (-0.5 to 0.5)); higher = stronger / more preferred TF binding
- Conditions: protein concentration: 200 nM; construct: GST-full length
In all, about 33,000 sequences were measured (“E-score (-0.5 to 0.5)”: median about -0.035, highest 2% from about 0.34 on). For the sample, the highest values were picked, then their nearest neighbours and some sequences at random.
Metric Name: PBM E-score

Consider the worked cases shown below.
{"columns": ["Sequence Code", "Assayed Target", "Result"],
 "data": [
  ["TCTACACA", "Mot3 (UniProt P54785)", 0.361],
  ["GCGTTACC", "Mot3 (UniProt P54785)", 0.0266],
  ["AAGTACAT", "Mot3 (UniProt P54785)", 0.265]
]}

-- ask What does the data say about its PBM E-score? Entry: CCAACACG
-- reply 0.299

-- ask What does the data say about its PBM E-score? Entry: ACGTTAAC
-- reply 0.25

-- ask What does the data say about its PBM E-score? Entry: GGCTCGTA
-- reply 0.112

* * *

- Assayed Target: Mot3 (UniProt P54785)
- Sequence: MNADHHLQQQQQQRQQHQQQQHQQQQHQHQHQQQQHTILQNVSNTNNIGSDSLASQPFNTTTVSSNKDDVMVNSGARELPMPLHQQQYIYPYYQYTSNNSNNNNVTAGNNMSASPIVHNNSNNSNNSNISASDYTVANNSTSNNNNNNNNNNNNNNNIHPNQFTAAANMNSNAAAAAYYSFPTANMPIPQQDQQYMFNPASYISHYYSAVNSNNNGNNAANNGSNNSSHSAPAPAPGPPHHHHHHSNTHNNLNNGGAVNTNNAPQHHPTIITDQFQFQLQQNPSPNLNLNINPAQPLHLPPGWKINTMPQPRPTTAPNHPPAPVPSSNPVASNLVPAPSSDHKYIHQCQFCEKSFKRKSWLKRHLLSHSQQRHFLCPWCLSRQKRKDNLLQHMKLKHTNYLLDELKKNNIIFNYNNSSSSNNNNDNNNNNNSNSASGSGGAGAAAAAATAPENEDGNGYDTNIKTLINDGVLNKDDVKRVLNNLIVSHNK
- Measurement Notes: PBM E-score (8-mer binding enrichment) (E-score (-0.5 to 0.5)); higher = stronger / more preferred TF binding
- Conditions: protein concentration: 200 nM; construct: GST-full length
In all, about 33,000 sequences were measured (“E-score (-0.5 to 0.5)”: median about -0.035, highest 2% from about 0.34 on). The list comes from a sample in which the highest values are over-represented; it also holds close analogues and randomly drawn sequences.
Catalogue of PBM E-score readings, one per entry.
Just the number.

Consider the worked cases shown below.
{"columns": ["Sequence Code", "PBM E-score"],
 "data": [
  ["GCTGTATA", 0.145],
  ["CATGTCGA", 0.351],
  ["GCTGTCGA", -0.12],
  ["AAAGCACC", -0.0982],
  ["ACTGTGTA", 0.349]
]}

-- ask What does the data say about its PBM E-score? Entry: GATGTCGA
-- reply 0.215

-- ask What does the data say about its PBM E-score? Entry: CCCTGGTC
-- reply -0.315
